# System: epinephrine-accelerated heart rate (anti-β effect)
# Measurement Protocol: Antiadrenergic effect: anti-β effect (reduction of epinephrine-accelerated heart rate)
# Type: in vivo
# Reported Conditions: Canis lupus familiaris, iv; dose 5 mg/kg i.v., dog
# Experimental: The purpose of this test was to determine the capacity of the compounds under study to reduce epinephrine-increased blood-pressure (anti-α effect) and epinephrine-accelerated heart rate (anti-β effect) in the dog previously anaesthetized with pentobarbital and atropinized. For each dog, the dose of epinephrine was first determined which provoked a reproductible increase by about 100 mm. Hg in the arterial pressure (between 5 and 10 μg/kg). […]
Property Label: inhibition in vivo at 5 mg/kg

Examples from the recorded data:
Compound	inhibition in vivo at 5 mg/kg
CCCCc1cc2ccccn2c1C(=O)c1ccc(OCCCN(CCC)CCC)c(C)c1	< 50%
CCCCN(CCCC)CCCOc1ccc(C(=O)c2c(CC)cc3ccccn23)cc1 [Butoprozine, reference compound]	< 50%
CCCCc1cc2ccccn2c1C(=O)c1ccc(OCCCN(CCC)CCC)c(Br)c1	> 50%
CCCN(CCC)CCCOc1ccc(C(=O)c2c(-c3ccc(Cl)cc3)c(Cl)c3ccccn23)cc1 [Cl/H/H/drawing 35/n-C3H7/3]	< 50%
CCCCc1cc2ccccn2c1C(=O)c1ccc(OCCCN(CCCC)CCCC)c(Br)c1	> 50%

q: Specify inhibition in vivo at 5 mg/kg for CCCCN(CCCC)CCCOc1ccc(C(=O)c2c(C)c(Br)c3ccccn23)cc1Br , system epinephrine-accelerated heart rate (anti-β effect).
a: > 50%

q: Specify inhibition in vivo at 5 mg/kg for CCCN(CCC)CCCOc1ccc(C(=O)c2c(-c3ccccc3)c(C)c3ccccn23)cc1Br [CH3/Br/H/drawing 46/n-C3H7/3] , system epinephrine-accelerated heart rate (anti-β effect).
a: > 50%

q: Specify inhibition in vivo at 5 mg/kg for CCCCN(CCCC)CCCOc1ccc(C(=O)c2c(CC)c(Br)c3ccccn23)cc1OC , system epinephrine-accelerated heart rate (anti-β effect).
a: > 50%

###

# Measurement Protocol: Acute toxicity by intragastric route to mice
# Format: in vivo
# Reported Conditions: mouse, in vivo, po, oxalate acid form except those marked (hydrochloride)
Property Label: LD50 (mg/kg)
Write the answer as a number in mg/kg, unit excluded.

q: Let me know recorded LD50 for CCCCN(CCCC)CCCOc1ccc(C(=O)c2c(CC)cc3ccccn23)cc1 [Butoprozine, reference compound] , thanks.
a: 1600

###

Catalogue of LD50 readings, one per entry.
# Measurement Protocol: Acute toxicity by intravenous route to mice
# Reported Conditions: mouse, in vivo, oxalate acid form except those marked (hydrochloride)
Write the answer as a number in mg/kg, unit excluded.

Examples from the recorded data:
Compound	Endpoint Value
CCCCc1c(C)c2ccccn2c1C(=O)c1ccc(OCCCN(CCC)CCC)c(Br)c1	50
CCCCN(CCCC)CCCOc1ccc(C(=O)c2c(C)c(Br)c3ccccn23)cc1Br.Cl	50

Now look at this one.
q: Let me know recorded LD50 for CCCCN(CCCC)CCCOc1ccc(C(=O)c2c(CC)cc3ccccn23)cc1 [Butoprozine, reference compound] , thanks.
a: 25

###

# System: blood-flow to the myocardium
# Measurement Protocol: Effect on blood-flow to the myocardium, anaesthetized dogs, intravenous
# Type: in vivo, dog
# Reported Conditions: dose 10 mg/kg i.v., anaesthetized dog
Property Label: Time required to decrease to 50% (duration of effect)

Examples from the recorded data:
Molecule	Endpoint Value
CCCN(CCC)CCCOc1ccc(C(=O)c2c(-c3ccc(Cl)cc3)c(Br)c3ccccn23)cc1Cl [Br/Cl/H/drawing 19/n-C3H7/3]	45 min
CCCCN(CCCC)CCCOc1ccc(C(=O)c2c(-c3ccc(Br)cc3)cc3ccccn23)cc1Cl [H/Cl/H/drawing 20/n-C4H9/3]	25 min

q: Let me know recorded Time required to decrease to 50% (duration of effect) for CCCN(CCC)CCCOc1ccc(C(=O)c2c(-c3ccccc3)c(Br)c3ccccn23)cc1Br [Br/Br/H/drawing 11/n-C3H7/3] , thanks.
a: 20 min

q: Let me know recorded Time required to decrease to 50% (duration of effect) for CCCCc1c(Br)c2ccccn2c1C(=O)c1ccc(OCCCN(CCC)CCC)c(Cl)c1 , thanks.
a: 90 min

q: Let me know recorded Time required to decrease to 50% (duration of effect) for CCCCN(CCCC)CCCOc1ccc(C(=O)c2c(-c3ccccc3)c(Br)c3ccccn23)cc1Cl [Br/Cl/H/drawing 17/n-C4H9/3] , thanks.
a: 90 min

q: Let me know recorded Time required to decrease to 50% (duration of effect) for CCCCN(CCCC)CCCOc1ccc(C(=O)c2c(-c3ccc(Br)cc3)cc3ccccn23)cc1Br [H/Br/H/drawing 13/n-C4H9/3] , thanks.
a: 25 min

q: Let me know recorded Time required to decrease to 50% (duration of effect) for CCCN(CCC)CCCOc1ccc(C(=O)c2c(-c3ccc(Br)cc3)c(Br)c3ccccn23)cc1Cl [Br/Cl/H/drawing 18/n-C3H7/3] , thanks.
a: 50 min

q: Let me know recorded Time required to decrease to 50% (duration of effect) for CCCCN(CCCC)CCCOc1ccc(C(=O)c2c(-c3cccc(Br)c3)c(Br)c3ccccn23)cc1Br [Br/Br/H/drawing 12/n-C4H9/3] , thanks.
a: 100 min

q: Let me know recorded Time required to decrease to 50% (duration of effect) for CCCCN(CCCC)CCCOc1c(Cl)cc(C(=O)c2c(-c3ccc(Br)cc3)cc3ccccn23)cc1Cl [H/Cl/Cl/drawing 14/n-C4H9/3] , thanks.
a: 15 min

q: Let me know recorded Time required to decrease to 50% (duration of effect) for CCCCc1c(Br)c2ccccn2c1C(=O)c1ccc(OCCCN(CCC)CCC)c(Br)c1 , thanks.
a: 20 min

q: Let me know recorded Time required to decrease to 50% (duration of effect) for CCCCc1c(Cl)c2ccccn2c1C(=O)c1ccc(OCCCN(CCCC)CCCC)cc1 , thanks.
a: 30 min

q: Let me know recorded Time required to decrease to 50% (duration of effect) for CCCCN(CCCC)CCCOc1ccc(C(=O)c2c(CC)cc3ccccn23)cc1 [Butoprozine, reference compound] , thanks.
a: 4 min

q: Let me know recorded Time required to decrease to 50% (duration of effect) for CCCCN(CCCC)CCCOc1ccc(C(=O)c2c(-c3cccc(Br)c3)cc3ccccn23)cc1Cl [H/Cl/H/drawing 15/n-C4H9/3] , thanks.
a: 45 min

q: Let me know recorded Time required to decrease to 50% (duration of effect) for CCCCc1oc2ccccc2c1C(=O)c1cc(I)c(OCCN(CC)CC)c(I)c1 [Amiodarone, reference compound] , thanks.
a: 7 min
